For each of the molecules below, state its inhibition.
target: Rho-associated protein kinase 2 (Homo sapiens); experiment: inhibitors of human ROCK2 kinase, primary screen, biochemical, high-throughput, luminescence (AID 604); details: purified ROCK2, Kinase-Glo ATP depletion luminescence; at 6 µM; active compounds read high;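 note: plate controls were DMSO wells for no effect and Y-27632 control wells after no-enzyme background subtraction for full effect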
Out of some 60,000 compounds screened, about 210 (0.35%) were called active. The sample holds actives, similar compounds and a random draw of the others, so the mix is not that of the screen.
Give a bare numeral; the unit % is implied.

Need inhibition of O=C(CN1CCOCC1)Nc1cc(Cl)ccc1Cl , thanks.
2.5

Recorded inhibition for O=C(CSc1ncccn1)NCCc1ccccc1 , please?
6.2

Item under review: Cc1noc(COc2ccccc2OCC(O)CNC(C)(C)C)n1 (stereo unspecified) . Reported inhibition?
1.2

Name the recorded inhibition for CCN(CC)C(=O)CSc1nnc(-c2ccc(S(=O)(=O)NCc3ccccc3Cl)cc2)o1 .
1.9

I would be grateful if you could share the reported inhibition for Cc1ccc(C(=O)NCC2CCCO2)o1 (stereo unspecified) .
4.3

Using the record for COc1ccc(OC)c(NC(=O)CN2CCN(C(=O)c3ccco3)CC2)c1 , report its inhibition.
0.1

Bench note: what inhibition did O=C(OCC(=O)N1CCCC1)c1ccco1 show?
3.5

What measured inhibition goes with CCN1CCN(Cc2nc3c(c(=O)n(C)c(=O)n3C)n2CC(=O)c2ccccc2)CC1 ?
-1.1

Which inhibition value belongs to CC(=O)c1ccc(NC(=O)N[C@@H](Cc2ccccc2)C(=O)O)cc1 ?
-0.8

State the recorded inhibition for this entry: CCCOC(=O)Cc1c(O)c2ccccc2[nH]c1=O
1.5

Give the measured inhibition of COc1cc(NS(=O)(=O)c2ccccc2)ccc1-n1nc(C)cc1C .
10.8

Looking for the measured inhibition of COc1ccccc1CNC(=O)Cn1cc2c(n1)CCCC2 , can you help?
2.7

Reported inhibition for O=C(CC1Oc2ccccc2NC1=O)NCCCN1CCN(Cc2ccccc2)CC1 (stereo unspecified) : what is it?
0.1

Item Fc1ccc(Cn2nnnc2C(c2cccs2)N2CCCCCC2)cc1 (stereo unspecified) has what recorded inhibition?
4.1

For the molecule O=C(NCc1ccco1)C1CCCN(S(=O)(=O)c2cnc[nH]2)C1 (stereo unspecified) , what inhibition is on record?
3.2

Consider the molecule Cc1cc(=O)[nH]c(SCC(=O)N2c3ccccc3CC2C)n1 (stereo unspecified) and give its measured inhibition.
-3.6

The origin of these recorded values is PubChem BioAssay AID604.
